test system: K98450-129-R-PDC multicell spheroids, viability; assay: Anticancer human tumor K98450-129-R-PDC patient-derived colon adenocarcinoma cell line growth inhibition [PI3K]; settings: second compound 0.0316 µM; first compound 0.0316 µM; stronger effect = lower value

{"compound": "CCCS(=O)(=O)Nc1ccc(F)c(C(=O)c2c[nH]c3ncc(-c4ccc(Cl)cc4)cc23)c1F + Cc1nc(NC(=O)N2CCCC2C(N)=O)sc1-c1ccnc(C(C)(C)C(F)(F)F)c1", "unit.string": "%", "viability, T/C": 106}
{"compound": "Cn1nccc1Nc1nccc(-c2ccn(C(CO)c3ccc(Cl)c(F)c3)c(=O)c2)n1 (stereo unspecified) + CC(Nc1ccc2c(c1)OCCn1cc(N3C(=O)OCC3C(F)F)nc1-2)C(N)=O", "unit.string": "%", "viability, T/C": 103}
{"compound": "CC1(C)CCC(CN2CCN(c3ccc(C(=O)NS(=O)(=O)c4ccc(NCC5CCOCC5)c([N+](=O)[O-])c4)c(Oc4cnc5[nH]ccc5c4)c3)CC2)=C(c2ccc(Cl)cc2)C1 + COc1c(OCCCN2CCOCC2)ccc2c3n(c(=NC(=O)c4cnc(N)nc4)nc12)CCN3", "unit.string": "%", "viability, T/C": 101}
{"compound": "CC(=O)c1c(C)c2cnc(Nc3ccc(N4CCNCC4)cn3)nc2n(C2CCCC2)c1=O + CC(Nc1ccc2c(c1)OCCn1cc(N3C(=O)OCC3C(F)F)nc1-2)C(N)=O", "unit.string": "%", "viability, T/C": 100}
{"compound": "CNC(=O)c1ccc(N2C(=S)N(c3ccc(C#N)c(C(F)(F)F)c3)C(=O)C2(C)C)cc1F + CC(Nc1ccc2c(c1)OCCn1cc(N3C(=O)OCC3C(F)F)nc1-2)C(N)=O", "unit.string": "%", "viability, T/C": 106}
{"compound": "Cn1nccc1Nc1nccc(-c2ccn(C(CO)c3ccc(Cl)c(F)c3)c(=O)c2)n1 (stereo unspecified) + CC(Nc1ncnc2nc[nH]c12)c1cc2cccc(Cl)c2c(=O)n1-c1ccccc1", "unit.string": "%", "viability, T/C": 110}
{"compound": "C=CC(=O)N1CCN(c2nc(=O)n(-c3c(C)ccnc3C(C)C)c3nc(-c4c(O)cccc4F)c(F)cc23)C(C)C1 (stereo unspecified) + Cc1nc(NC(=O)N2CCCC2C(N)=O)sc1-c1ccnc(C(C)(C)C(F)(F)F)c1", "unit.string": "%", "viability, T/C": 111}
{"compound": "CC(=O)c1c(C)c2cnc(Nc3ccc(N4CCNCC4)cn3)nc2n(C2CCCC2)c1=O + Cc1nc(NC(=O)N2CCCC2C(N)=O)sc1-c1ccnc(C(C)(C)C(F)(F)F)c1", "unit.string": "%", "viability, T/C": 100}
{"compound": "CC1(C)CCC(Nc2ncc(C(F)(F)F)c(-c3c[nH]c4c(P(C)(C)=O)c(C#N)ccc34)n2)CN1 (stereo unspecified) + CC(Nc1ncnc2nc[nH]c12)c1cc2cccc(Cl)c2c(=O)n1-c1ccccc1", "unit.string": "%", "viability, T/C": 104}
{"compound": "CCCS(=O)(=O)Nc1ccc(F)c(C(=O)c2c[nH]c3ncc(-c4ccc(Cl)cc4)cc23)c1F + COc1c(OCCCN2CCOCC2)ccc2c3n(c(=NC(=O)c4cnc(N)nc4)nc12)CCN3", "unit.string": "%", "viability, T/C": 99}
{"compound": "C#Cc1c(F)ccc2cc(O)cc(-c3ncc4c(N5CC6CCC(C5)N6)nc(OCC56CCCN5CC(F)C6)nc4c3F)c12 (stereo unspecified) + CC(Nc1ncnc2nc[nH]c12)c1cc2cccc(Cl)c2c(=O)n1-c1ccccc1", "unit.string": "%", "viability, T/C": 120}

###

test system: K98450-129-R-PDC multicell spheroids, viability; experiment: Anticancer human tumor K98450-129-R-PDC cell line growth inhibition [PI3K]; conditions: second compound 0.0316 µM; first compound 0.316 µM; stronger effect = lower value;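 also: spheroids exposed to agents for seven days before read-out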
This listing pairs molecules with measured viability, T/C.
quantity: viability, T/C

{"molecule": "Cn1ncc(Cl)c1-c1cc(C(=O)NC(CN)Cc2cccc(F)c2)sc1Cl (stereo unspecified) + COc1c(OCCCN2CCOCC2)ccc2c3n(c(=NC(=O)c4cnc(N)nc4)nc12)CCN3", "target": "K98450-129-R-PDC multicell spheroids, viability", "quantity": "viability, T/C", "test.result": "90.9%"}
{"molecule": "CNC(=O)c1ccc(N2C(=S)N(c3ccc(C#N)c(C(F)(F)F)c3)C(=O)C2(C)C)cc1F + CC(Nc1ncnc2nc[nH]c12)c1cc2cccc(Cl)c2c(=O)n1-c1ccccc1", "target": "K98450-129-R-PDC multicell spheroids, viability", "quantity": "viability, T/C", "test.result": "104%"}
{"molecule": "C[C@@H](NC(=O)c1ncnc(N)c1Cl)c1ncc(C(=O)Nc2cc(C(F)(F)F)c(Cl)cn2)s1 + CC(Nc1ccc2c(c1)OCCn1cc(N3C(=O)OCC3C(F)F)nc1-2)C(N)=O", "target": "K98450-129-R-PDC multicell spheroids, viability", "quantity": "viability, T/C", "test.result": "108%"}
{"molecule": "Cn1ncc(Cl)c1-c1cc(C(=O)NC(CN)Cc2cccc(F)c2)sc1Cl (stereo unspecified) + Cc1nc(NC(=O)N2CCCC2C(N)=O)sc1-c1ccnc(C(C)(C)C(F)(F)F)c1", "target": "K98450-129-R-PDC multicell spheroids, viability", "quantity": "viability, T/C", "test.result": "109%"}
{"molecule": "CC(Cn1ccc(-c2ccc(C#N)c(Cl)c2)n1)NC(=O)c1cc(C(C)O)[nH]n1 (stereo unspecified) + CC(Nc1ccc2c(c1)OCCn1cc(N3C(=O)OCC3C(F)F)nc1-2)C(N)=O", "target": "K98450-129-R-PDC multicell spheroids, viability", "quantity": "viability, T/C", "test.result": "101%"}
{"molecule": "CCN1CCN(Cc2ccc(Nc3ncc(F)c(-c4cc(F)c5nc(C)n(C(C)C)c5c4)n3)nc2)CC1 + COc1c(OCCCN2CCOCC2)ccc2c3n(c(=NC(=O)c4cnc(N)nc4)nc12)CCN3", "target": "K98450-129-R-PDC multicell spheroids, viability", "quantity": "viability, T/C", "test.result": "72.8%"}

###

IC50 values for the compounds below.
system: K98450-129-R-PDC multicell spheroids, viability; assay: Anticancer human tumor K98450-129-R-PDC cell line growth inhibition [PI3K]; conditions: curve of first compound; second compound 1 µM;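 also: spheroids exposed to agents for seven days before read-out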

{"compound": "Cn1cnc2c(F)c(Nc3ccc(Br)cc3Cl)c(C(=O)NOCCO)cc21 + COc1c(OCCCN2CCOCC2)ccc2c3n(c(=NC(=O)c4cnc(N)nc4)nc12)CCN3", "qualifier": "<", "IC50 [µM]": 0.00949}
{"compound": "CCCS(=O)(=O)Nc1ccc(F)c(C(=O)c2c[nH]c3ncc(-c4ccc(Cl)cc4)cc23)c1F + CC(Nc1ncnc2nc[nH]c12)c1cc2cccc(Cl)c2c(=O)n1-c1ccccc1", "qualifier": "=", "IC50 [µM]": 5.51}
{"compound": "CCCS(=O)(=O)Nc1ccc(F)c(C(=O)c2c[nH]c3ncc(-c4ccc(Cl)cc4)cc23)c1F + COc1c(OCCCN2CCOCC2)ccc2c3n(c(=NC(=O)c4cnc(N)nc4)nc12)CCN3", "qualifier": "=", "IC50 [µM]": 1.65}
{"compound": "CC(Cn1ccc(-c2ccc(C#N)c(Cl)c2)n1)NC(=O)c1cc(C(C)O)[nH]n1 (stereo not given) + COc1c(OCCCN2CCOCC2)ccc2c3n(c(=NC(=O)c4cnc(N)nc4)nc12)CCN3", "qualifier": "=", "IC50 [µM]": 4.9}
{"compound": "C#Cc1c(F)ccc2cc(O)cc(-c3ncc4c(N5CC6CCC(C5)N6)nc(OCC56CCCN5CC(F)C6)nc4c3F)c12 (stereo not given) + CC(Nc1ccc2c(c1)OCCn1cc(N3C(=O)OCC3C(F)F)nc1-2)C(N)=O", "qualifier": ">", "IC50 [µM]": 10}

###

system: K98450-129-R-PDC multicell spheroids, viability; assay: Anticancer human tumor K98450-129-R-PDC cell line growth inhibition [PI3K]; conditions: second compound 10 µM; first compound 10 µM; active = viability on the fitted dose curve at most 10% of control; inactive = the rest;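 also: spheroids exposed to agents for seven days before read-out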
Possible outcomes: Y = active, N = inactive

{"compound": "CC1(C)CCC(Nc2ncc(C(F)(F)F)c(-c3c[nH]c4c(P(C)(C)=O)c(C#N)ccc34)n2)CN1 (stereo not drawn) + Cc1nc(NC(=O)N2CCCC2C(N)=O)sc1-c1ccnc(C(C)(C)C(F)(F)F)c1", "class.assignment": "N"}
{"compound": "CC1(C)CCC(CN2CCN(c3ccc(C(=O)NS(=O)(=O)c4ccc(NCC5CCOCC5)c([N+](=O)[O-])c4)c(Oc4cnc5[nH]ccc5c4)c3)CC2)=C(c2ccc(Cl)cc2)C1 + CC(Nc1ncnc2nc[nH]c12)c1cc2cccc(Cl)c2c(=O)n1-c1ccccc1", "class.assignment": "Y"}
{"compound": "CC(C)NCC(C(=O)N1CCN(c2ncnc3c2C(C)CC3O)CC1)c1ccc(Cl)cc1 (stereo not drawn) + CC(Nc1ncnc2nc[nH]c12)c1cc2cccc(Cl)c2c(=O)n1-c1ccccc1", "class.assignment": "N"}

From: PubChem BioAssay AID1963961
